Record form. Attribute: pEC50. Fill in for each entry.
# Study system: T1, human Claudin18.2 (human)
# T1 construct: also called CLDN18.2
# Procedure text: cell ELISA, Claudin18.2-expressing HEK293T cells
One number for each entry, as −log10 of the molar value.

Sample records with pEC50:
q: Could you share which pEC50 value was measured for 241H10A1 (antibody, V domains shown, mouse hybridoma mAb) VH: QVQLQQSGAELVKPGASVKLSCKASGYTFTSFGINWLRQRPEQGLEWIGWIFPGDGNSKYNENFKGKATLTTDKSSSTAYMQVTRLTSEDSAVYFCARFYYGNSFANWGQGTLVTVSA VL: DIVMTQSPSSLTVTAGEKVTMSCKSSQSLLNSGNQKNYLTWYQQKPGQPPKLLIYWAATRESGVPDRFTGSGSGTDFTLTISSVQAEDLAVYYCQNDYFYPFTFGGGTKLELK ?
a: 8.78

q: Would you mind doing 253E4F7 (antibody, V domains shown, mouse hybridoma mAb) VH: EIQLQQSGPELMKPGASVKMSCKASGYSFTSYYIHWVKQSHGKSLEWIGYIDPFNGGTRYNQKFEGKATLTVDKSSTTAYMHLSSLTSEDSTVYYCASLRFLAYWGQGTLVTVSA VL: DIVMTQSPSSLTVTAGEKVTMTCKSSQSLLNSGNQKNYLTWYQQKPGQPPKVLISRASTRQSGVPDRFTGSGSGTDFTLTISSVQAEDLAVYYCQNDYSYPLTFGAGTKLELK as well?
a: 9.21

q: Would you mind doing 259C6F4 (antibody, V domains shown, mouse hybridoma mAb) VH: QAYLQQSGAELVRSGASVKMSCKASGYTFSSHNIHWVKQTPGQGLEWIGYIYPGNGDTNYNQKFKGKATLTADTSSSTAYMQISSLTSEDSAVYFCARDYYGNSFVYWGQGTLVTVSA VL: DIVMIQSPSSLTEKAGEKVSMSCKSSQSLLNSGNQKNYLTWYQQKPGQPPKLLIYWASTRESGVPDRFTGSGSGTDFTLTISSVQAEDLAVYYCQNAYRFPFTFGAGTKLELK as well?
a: 8.63

q: Would you mind doing 411B4G4 (antibody, V domains shown, mouse hybridoma mAb) VH: DVQLVESGGGLVQPGGSRKLSCAASGFTFSGFGLHWIRQTPEKGLEWVAYISSGSRPIYYADTVKGRFTISRDNPKNTLFLQMTSLRSEDTAMYFCARFYYGNSFDHWGQGTLVTVSA VL: DIVMTQSPSFLTVTAGEKVTMSCRSSQSLLNSGNQRNYLTWYQQKPGQPPKLLIYWASTRESGVPDRFTGSGSGTDFTLTISSVQAEDLALYYCQNAYSFPLTFGAGTKLELK as well?
a: 8.54

q: Would you mind doing 257F1E11 (antibody, V domains shown, mouse hybridoma mAb) VH: QAYLQQSGAELVRSGASVKMSCKASGYTFTSHNIHWVKQTPRQGLEWIGYIYPGNGGTNYNQKFKGKATLTADTSSSTAYMQISSLTSEDSAVYFCTRDYYGNSFAYWGQGTLVTVSA VL: DIVMTQSPSSLTEKAGERVSMSCKSSQSLFNSGNQKNYLTWYQQKPGQPPKLLIYWASTRESGVPDRFTGSGSGTDFTLTISSVQAEDLAIYYCQNDYWYPFTFGAGTKLELK as well?
a: 7.24

Required: pEC50, one value per binder below.
1. 292D9C7 (antibody, V domains shown, mouse hybridoma mAb) VH: QVQLKESGPGLVAPSQSLSITCTVSGFSLTDYGVSWIRQPPGKGLEWLGVIWGGGNAYYNSALKSRLSISKDNSKSQVFLKMNSLRTDDTAMYYCAKNGLLRYLDYWGQGSTLTVSS VL: DTVMTQSPSSLTVTAGEKVTMSCKSSQSLLNSGNQKNYLTWYQQKPGQPPKLLIYWASTRESGVPDRFTGSGSGRDFTLTISSVQVEDLAIYYCQNDYYYPLTFGAGTKVELK
2. 262C7C10 (antibody, V domains shown, mouse hybridoma mAb) VH: QAYLQQSGAELVRSGASVKMSCKASGYTFTNYNIHWVKQTPGQGLEWIGYIYPGNGGNYYNQKFKGKATLTADTSSITAYMQISSLTSEDSAVYFCARDYYGNSFAYWGQGTLVTVSA VL: DIVMTQSPSSLTVTAGEKVTMNCKSSQSLLNSGNQKNYLTWYQQKPGQPPKLLIYWASTRESGVPDRFTGSGSGTDFTLTISSVQAEDLAIYYCQNDYYYPLTFGAGTKLELK
3. 242H12D6 (antibody, V domains shown, mouse hybridoma mAb) VH: QAYLQQSGAELVRSGASVKMSCKASGYTFTSHNMHWVKQTPGQGLEWIGYIYPGNGGTNYNQKFKGKATLTADTSSSTAYMQINSLTSEDSAVYFCTRDYYGNSFAYWGQGTLVTVSA VL: DIVMTQSPSSLTEKAGERVSMSCKSSQSLFNSGNQKNYLTWYQQKPGQPPKLLIYWASTRESGVPDRFTGSGSGTDFTLTISSVQAEDLAVYYCQNDYRYPFTFGAGTKLELK
4. 410H6H3 (antibody, V domains shown, mouse hybridoma mAb) VH: DVLLVESGGGLVQPGGSRKLSCAASGFTFSSSGMHWVRQAPEKGLEWVAYISSGSNTIYYADTLKGRFTISRDNPKNTLFLQMTSLRSEDTAMYYCARIYYGNSFVYWGQGTLVTVSA VL: DIVMTQSPSSLTVTAGEKVIMSCKSSQSLLNSGNQKNYLTWYQQKPGQPPKMLIYWASTRESGVPDRFRGSGSGTDFTLTISSVQAEDLAVYYCQNNYYYPLTFGTGTKLALK
5. 391H11H3 (antibody, V domains shown, mouse hybridoma mAb) VH: DVQLVESGGGLVQPGGSRKLSCAASGFTFSGFGMHWIRQTPEKGLEWVAYISSGSRPIYYADTVQGRFTISRDNPKNTLFLQMTSLRSEDTAMYFCARFYYGNSFDHWGQGTLVTVSS VL: DIVMTQSPSFLTVTAGEKVTMSCKSSQSLLNSGNQKNYLTWYQQKPGQPPKLLIYWASTRESGVPDRFTGSGSGTDFTLTISSVQAEDLALYYCQNAYSFPLTFGAGTKLELK

a:
9.06
8.75
9.13
7.34
8.53
